System: Mast/stem cell growth factor receptor Kit (Homo sapiens), P10721 [V560G]
Sequence (P10721 whole entry V560G): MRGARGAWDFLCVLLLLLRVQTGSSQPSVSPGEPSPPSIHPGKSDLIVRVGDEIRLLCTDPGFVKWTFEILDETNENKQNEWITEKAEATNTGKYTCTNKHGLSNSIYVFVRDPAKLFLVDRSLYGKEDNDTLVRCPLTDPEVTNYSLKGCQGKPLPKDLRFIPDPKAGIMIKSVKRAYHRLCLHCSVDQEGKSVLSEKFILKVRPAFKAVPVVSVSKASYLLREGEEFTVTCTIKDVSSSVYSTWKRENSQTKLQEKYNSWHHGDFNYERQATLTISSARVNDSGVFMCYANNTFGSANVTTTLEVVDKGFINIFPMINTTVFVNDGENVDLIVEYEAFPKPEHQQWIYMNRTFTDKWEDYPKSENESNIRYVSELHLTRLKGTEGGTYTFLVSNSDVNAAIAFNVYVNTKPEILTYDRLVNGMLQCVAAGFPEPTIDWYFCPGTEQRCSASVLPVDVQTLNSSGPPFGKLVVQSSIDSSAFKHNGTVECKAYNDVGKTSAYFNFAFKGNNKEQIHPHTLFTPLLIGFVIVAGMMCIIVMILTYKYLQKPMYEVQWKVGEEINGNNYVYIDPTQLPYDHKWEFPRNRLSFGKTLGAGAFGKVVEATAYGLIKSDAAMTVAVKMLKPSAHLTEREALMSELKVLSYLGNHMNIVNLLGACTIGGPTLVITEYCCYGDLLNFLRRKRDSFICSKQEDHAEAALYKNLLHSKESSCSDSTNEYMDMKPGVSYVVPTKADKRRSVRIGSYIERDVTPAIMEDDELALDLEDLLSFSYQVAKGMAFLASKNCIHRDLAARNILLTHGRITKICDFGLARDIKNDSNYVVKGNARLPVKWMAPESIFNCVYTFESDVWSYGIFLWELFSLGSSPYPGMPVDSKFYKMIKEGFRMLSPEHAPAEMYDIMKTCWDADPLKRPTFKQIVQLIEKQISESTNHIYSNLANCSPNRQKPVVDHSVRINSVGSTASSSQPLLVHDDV
particulars: at 1 µM
Listed here: items and their measured inhibition.
All answers are understood in %, so give the number only.

Examples from the recorded data:
> print(dat)
                             compoundsmiles    quantity  observedmeasurement
1   COc1ccc(COc2ccc(Cc3cnc(N)nc3N)cc2OC)cc1  inhibition                 8.16
2  CN1CCC(C(=O)Nc2n[nH]c3nnc(-c4ccccc4)cc23)CC1  inhibition                 1.05

Would you mind telling me what inhibition value was observed for `CS(=O)(=O)Nc1ccc(N/C=C2\C(=O)Nc3ccccc32)cc1` ?
20.4

Would you mind telling me what inhibition value was observed for `Nc1nc(-c2ccc3c(c2)C(=Cc2cc(Br)c(O)c(Br)c2)C(=O)N3)cs1` ?
1.96
